Tested on: Leukotrienes
measurement protocol: inhibition of leukotriene biosynthesis in vivo, rat peritoneal anaphylaxis model, oral
experimental context: oral gavage, 100 μmol/kg, 1 h before antigen challenge, read-out: % Inhibition of Leukotrienes, Oral Dose at 100 μmol/kg
measured quantity: inhibition in vivo at 100 µmol/kg (%)
Express it in %; write the number only.

In the examples that follow, each entry is paired with its recorded inhibition in vivo at 100 µmol/kg.
>  <compound>
C[C@@H](CN(O)C(N)=O)NC(=O)c1ccc(Oc2ccc(F)cc2)o1 [Example 60]

>  <unit annotation>
%

>  <reported measurement>
84

$$$$
>  <compound>
NC(=O)N(O)CCCNC(=O)c1cccc(Oc2ccccc2)c1 [Example 21]

>  <unit annotation>
%

>  <reported measurement>
95

$$$$
>  <compound>
NC(=O)N(O)CCNC(=O)Cc1cccc(Oc2ccccc2)c1 [Example 56]

>  <unit annotation>
%

>  <reported measurement>
85

$$$$
>  <compound>
CC(Oc1ccccc1C(=O)NCCN(O)C(N)=O)c1ccccc1 (stereo not shown) [Example 87]

>  <unit annotation>
%

>  <reported measurement>
60

$$$$

## Task Given the entry COc1ccc(Oc2cccc(CN(C)CCN(O)C(N)=O)c2)cc1 [Example 38] , report its measured inhibition in vivo at 100 µmol/kg.
## Result 86

## Task Next record, please: CCCCOc1cccc(C(=O)NCCN(O)C(N)=O)c1 [Example 19]
## Result 63
